Recorded pIC50, one value per entry.
# tested target: purified recombinant human GAC (GLS1) (Homo sapiens (Human), UniProt O94925)
# Sequence (O94925 other isoform, or with tags, fused parts or gaps): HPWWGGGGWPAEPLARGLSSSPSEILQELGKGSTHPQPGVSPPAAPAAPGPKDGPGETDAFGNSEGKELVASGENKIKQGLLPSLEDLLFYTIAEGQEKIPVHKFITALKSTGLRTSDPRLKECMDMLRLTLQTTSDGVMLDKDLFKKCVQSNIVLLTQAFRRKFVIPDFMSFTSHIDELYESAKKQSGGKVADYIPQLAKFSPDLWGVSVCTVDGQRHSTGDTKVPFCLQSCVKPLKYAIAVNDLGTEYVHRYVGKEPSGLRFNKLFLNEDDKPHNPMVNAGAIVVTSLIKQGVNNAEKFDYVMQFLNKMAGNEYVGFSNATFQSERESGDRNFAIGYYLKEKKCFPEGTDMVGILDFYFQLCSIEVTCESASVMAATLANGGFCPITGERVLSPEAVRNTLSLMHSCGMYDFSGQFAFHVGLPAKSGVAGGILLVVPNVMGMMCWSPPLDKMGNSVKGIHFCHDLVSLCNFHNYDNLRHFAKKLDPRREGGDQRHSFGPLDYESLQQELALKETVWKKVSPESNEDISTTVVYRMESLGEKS
# test summary: GLS1 Enzymatic Activity Assay (dual-coupled enzymatic assay, resorufin/Amplex UltraRed readout)
pIC50: −log10 of the molar value.

Cc1ccc(CC(=O)Nc2cn(CCCCn3cc(C(=O)NCc4cccnc4)nn3)nn2)cn1 [Example 322] : 6.30 to 7.00

Return reported pIC50; argument: CNC(=O)c1cn(CC(F)CCc2nnc(NC(=O)Cc3cccc(OC(F)(F)F)c3)s2)nn1 (stereo not drawn) [Example 497]
> 7.00

====

Recorded pIC50, one value per entry.
# tested target: purified recombinant human GAC (GLS1) (Homo sapiens (Human), UniProt O94925)
# test summary: GLS1 Enzymatic Activity Assay (dual-coupled enzymatic assay, resorufin/Amplex UltraRed readout)
# Type: biochemical
pIC50: −log10 of the molar value.

Known results for compounds:
CNC(=O)c1cn(CCCCc2ccc(NC(=O)Cc3cncc(-c4cccc(OC(F)(F)F)c4)c3)nn2)nn1 [Example 188] : > 7.00
O=C(Cc1ccccn1)Nc1nnc(CCC(F)Cn2cc(C(=O)NCc3cc(OC(F)(F)F)ccc3F)nn2)s1 (stereo not shown) [Example 514] : > 7.00
O=C(NCc1cccc(OC(F)F)c1)c1cn(CCCCn2cc(C(=O)NCc3cc(C(F)(F)F)ccn3)nn2)nn1 [Example 132] : > 7.00
CNC(=O)c1nnc(CCCCc2ccc(NC(=O)Cc3cccc(OC(F)(F)F)c3)nn2)s1 [Example 572] : > 7.00
O=C(Cc1cccc(OC(F)(F)F)c1)Nc1cn(CCCCn2cc(C(=O)NCC3CCCC3)nn2)nn1 [Example 292] : 6.30 to 7.00

Return reported pIC50; argument: Cc1ccc(CNC(=O)c2cn(CCC(F)Cn3cc(NC(=O)CN4CC(F)(F)C4)nn3)nn2)cn1 (stereo not shown) [Example 393]
5.30 to 6.30

Return reported pIC50; argument: CNC(=O)c1cn(C[C@H](F)CCc2ccc(NC(=O)Cc3cc(C4CC4)ccn3)nn2)nn1 [Example 275]
> 7.00

====

Recorded IC50, one value per entry.
# tested target: purified recombinant human GAC (GLS1) (Homo sapiens (Human))
# test summary: GLS1 Enzymatic Activity Assay (dual-coupled enzymatic assay, resorufin/Amplex UltraRed readout)

Known results for molecules:
O=C(CN1CCC(F)(F)CC1)Nc1cn(CCCCn2cc(C(=O)NCc3cc(Cl)ccc3F)nn2)nn1 [Example 359] : 100 to 500 nM
O=C(CN1CC(F)(F)C1)Nc1cn(CCCCn2cc(C(=O)NCc3cc(OC(F)(F)F)ccc3F)nn2)nn1 [Example 353] : < 100 nM
O=C(Cc1cccc(OC(F)(F)F)c1)Nc1ccc(CCCCn2cc(C(=O)NCC3COC3)nn2)nn1 [Example 550] : < 100 nM
CNC(=O)c1cn(CCCCc2ccc(NC(=O)Cc3cc(C(C)C(F)(F)F)ccn3)nn2)nn1 (stereo not shown) [Example 258] : < 100 nM
O=C(Cc1cccc(OC(F)(F)F)c1)Nc1cn(CCC(F)Cn2cc(C(=O)NCc3cc(C(F)(F)F)ccn3)nn2)nn1 (stereo not shown) [Example 407] : < 100 nM

Given the entry CC(C)(C)OC(=O)N1CC(CNC(=O)c2cn(CCCCn3cc(C(=O)NCc4cccc(OC(F)(F)F)c4)nn3)nn2)C1 [Example 79] , what IC50 was observed with purified recombinant human GAC (GLS1) (Homo sapiens (Human))?
< 100 nM

Given the entry O=C(CN1CCC(F)(F)CC1)Nc1cn(CCCCn2cc(C(=O)NCc3cccc(OC(F)(F)F)c3)nn2)nn1 [Example 332] , what IC50 was observed with purified recombinant human GAC (GLS1) (Homo sapiens (Human))?
< 100 nM

Given the entry O=C(CN1CC(F)C1)Nc1cn(CC(F)CCn2cc(C(=O)NCc3ncccc3F)nn2)nn1 (stereo not shown) [Example 409] , what IC50 was observed with purified recombinant human GAC (GLS1) (Homo sapiens (Human))?
500 to 5000 nM

====

# tested target: purified recombinant human GAC (GLS1) (Homo sapiens (Human), UniProt O94925)
# test summary: GLS1 Enzymatic Activity Assay (dual-coupled enzymatic assay, resorufin/Amplex UltraRed readout)
pIC50: −log10 of the molar value.
readout type: pIC50

Known results for compounds:
O=C(Cc1ccccn1)Nc1cn(CCCCn2cc(C(=O)NCc3ccccn3)nn2)nn1 [Example 297] : 5.30 to 6.30
O=C(NCc1cncc(C(F)(F)F)c1)c1cn(CC(F)CCc2nnc(C(=O)NCC(F)(F)F)s2)nn1 (stereo not shown) [Example 500] : 6.30 to 7.00
COc1cccc(CNC(=O)c2cn(CCCCn3cc(C(=O)NCc4cc(C(F)(F)F)ccn4)nn3)nn2)c1 [Example 108] : > 7.00

Return reported pIC50; argument: O=C(NCc1cccc(OC(F)(F)F)c1)c1cn(CCC(F)Cn2cc(C(=O)N[C@H](CO)c3ccccc3)nn2)nn1 (stereo partly shown) [Example 462]
> 7.00

Return reported pIC50; argument: O=C(NCc1cn2ccsc2n1)c1cn(CCC(F)Cn2cc(C(=O)NCc3cc(C(F)(F)F)ccn3)nn2)nn1 (stereo not shown) [Example 155]
> 7.00

Return reported pIC50; argument: O=C(NCc1cccc(OC(F)(F)F)c1)c1cn(CCC(F)Cn2cc(C(=O)NCc3cc(C(F)(F)F)ccn3)nn2)nn1 (stereo not shown) [Example 428]
> 7.00

Return reported pIC50; argument: O=C(NCc1cc(C(F)(F)F)ccn1)c1cn(CC(F)CCc2nnc(C(=O)NCc3cccc(C(F)(F)F)n3)s2)nn1 (stereo not shown) [Example 491]
> 7.00

====

# tested target: purified recombinant human GAC (GLS1) (Homo sapiens (Human))
# test summary: GLS1 Enzymatic Activity Assay (dual-coupled enzymatic assay, resorufin/Amplex UltraRed readout)
readout type: IC50

Known results for compounds:
O=C(CN1CCC(F)(F)C1)Nc1cn(CCCCn2cc(C(=O)NCc3ccccn3)nn2)nn1 : 500 to 5000 nM
O=C(Cc1ccccn1)Nc1cn(CC(F)CCn2cc(C(=O)NCc3cc(OC(F)(F)F)ccc3F)nn2)nn1 (stereo not drawn) : < 100 nM
CNC(=O)c1cn(CCCCc2ccc(NC(=O)CN3CCN(c4cccc(OC(F)(F)F)c4)CC3)nn2)nn1 : < 100 nM

# context switch: different compound, same IC50
Return reported IC50; argument: "O=C(NCc1cccc(OC(F)(F)F)c1)c1cn(CCCCn2cc(C(=O)NCC3CCOCC3)nn2)nn1"
100 to 500 nM

====

Recorded IC50, one value per entry.
# tested target: purified recombinant human GAC (GLS1) (Homo sapiens (Human))
# test summary: GLS1 Enzymatic Activity Assay (dual-coupled enzymatic assay, resorufin/Amplex UltraRed readout)

O=C(Cc1cc(OC(F)(F)F)ccc1F)Nc1cn(CC(F)CCn2cc(C(=O)NCc3ccccn3)nn2)nn1 (stereo not shown) [Example 375] : < 0.1 µM
O=C(NCc1cccc(OC(F)(F)F)c1)c1cn(CCC(F)Cn2cc(C(=O)NCc3cc(C4CC4)ccn3)nn2)nn1 (stereo not shown) [Example 147] : < 0.1 µM
O=C(NCc1ccnnc1)c1cn(CCCCn2cc(C(=O)NCc3cccc(OC(F)(F)F)c3)nn2)nn1 [Example 127] : 0.1 to 0.5 µM

Return reported IC50; argument: O=C(NCc1cncc(C(F)(F)F)c1)c1cn(CCCCn2cc(C(=O)NCC3CCCO3)nn2)nn1 (stereo not shown) [Example 92]
0.5 to 5 µM

Return reported IC50; argument: CNC(=O)c1cn(CC(F)CCc2nnc(NC(=O)Cc3ccccn3)s2)nn1 (stereo not shown) [Example 519]
0.1 to 0.5 µM

Return reported IC50; argument: O=C(NCc1cccc(OC(F)(F)F)c1)c1cn(CC(F)CCc2nnc(C(=O)NCc3ccc(C(F)(F)F)cn3)s2)nn1 (stereo not shown) [Example 464]
< 0.1 µM

Return reported IC50; argument: O=C(NCc1cc(C(F)(F)F)ccn1)c1cn(CCCCn2cc(C(=O)NCc3cc(C(F)(F)F)ccn3)nn2)nn1 [Example 158]
< 0.1 µM

====

Recorded IC50, one value per entry.
# tested target: purified recombinant human GAC (GLS1) (Homo sapiens (Human), UniProt O94925)
# test summary: GLS1 Enzymatic Activity Assay (dual-coupled enzymatic assay, resorufin/Amplex UltraRed readout);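 note: glutamate from GAC coupled via glutamate oxidase and peroxidase to resorufin, read as fluorescence (ex 530, em 590 nm) kinetically or at 20 min, four-parameter logistic IC50 fit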

COCCOc1cccc(CNC(=O)c2cn(CCCCn3cc(C(=O)NCc4cc(C(F)(F)F)ccn4)nn3)nn2)c1 [Example 125] : < 100 nM
CNC(=O)c1cn(CCCCc2ccc(NC(=O)Cc3cccc(N4CCOCC4)c3)nn2)nn1 [Example 178] : < 100 nM
O=C(NCc1cc(C(F)(F)F)ccn1)c1cn(CCCCn2cc(C(=O)NC[C@H]3CC4CCC3O4)nn2)nn1 (stereo partly shown) [Example 102] : 500 to 5000 nM

# context switch: different compound, same IC50
Return reported IC50; argument: O=C(NCc1cc(OC(F)(F)F)ccc1F)c1cn(CC(F)CCc2nnc(C(=O)NCc3cc(C(F)(F)F)ccn3)s2)nn1 (stereo not shown) [Example 451]
< 100 nM
